- System: T1, Human CD228 protein (human, UniProt P08582 20-708, limits assumed)
- T1 construct: Recombinant protein made in CHO cells, purified over a Ni column; The printed entry begins with the leader (MRGPSG...) and ends with ten His; also called hCD228; CD228-His protein
- T1 sequence: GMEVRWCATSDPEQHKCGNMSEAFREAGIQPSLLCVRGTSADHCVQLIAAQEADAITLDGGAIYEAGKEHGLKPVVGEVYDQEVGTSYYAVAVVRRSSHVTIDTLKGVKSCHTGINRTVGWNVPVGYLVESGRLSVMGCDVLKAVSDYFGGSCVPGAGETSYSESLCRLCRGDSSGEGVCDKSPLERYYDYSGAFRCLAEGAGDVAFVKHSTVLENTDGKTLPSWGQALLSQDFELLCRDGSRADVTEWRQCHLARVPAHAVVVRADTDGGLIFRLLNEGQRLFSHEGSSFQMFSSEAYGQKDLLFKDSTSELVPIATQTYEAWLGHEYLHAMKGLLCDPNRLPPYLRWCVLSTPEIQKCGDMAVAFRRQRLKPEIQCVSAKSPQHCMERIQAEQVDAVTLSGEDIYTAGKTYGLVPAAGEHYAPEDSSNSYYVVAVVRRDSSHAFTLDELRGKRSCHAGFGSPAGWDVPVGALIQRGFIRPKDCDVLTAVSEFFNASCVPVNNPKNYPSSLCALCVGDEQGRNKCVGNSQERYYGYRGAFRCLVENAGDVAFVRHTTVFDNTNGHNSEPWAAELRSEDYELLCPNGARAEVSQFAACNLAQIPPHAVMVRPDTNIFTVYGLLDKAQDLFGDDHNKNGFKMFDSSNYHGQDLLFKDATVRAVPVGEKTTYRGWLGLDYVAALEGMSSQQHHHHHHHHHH
- Test method notes: Octet competition on His-chip CD228; competitor: CA13
Measured competition (1-response value/blank value) values are reported for all entries that follow.
Measurement label: competition (1-response value/blank value) (%)

>>> value_observed("reference antibody hL49 (antibody, human IgG1, kappa, V domains shown, also called H149; hL49 analogy) VH: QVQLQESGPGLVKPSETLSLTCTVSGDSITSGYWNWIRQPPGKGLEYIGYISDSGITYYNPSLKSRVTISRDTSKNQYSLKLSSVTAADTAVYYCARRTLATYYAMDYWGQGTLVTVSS VL: DFVMTQSPLSLPVTLGQPASISCRASQSLVHSDGNTYLHWYQQRPGQSPRLLIYRVSNRFSGVPDRFSGSGSGTDFTLKISRVEAEDVGVYYCSQSTHVPPTFGQGTKLEIKR")
-6
>>> value_observed("CA185 (antibody, human IgG1, kappa, V domains shown, Intact IgG1) VH: EVQLVESGGGVVQPGRSLRLSCAASGFTFSSYAMHWVRQAPGKGLEWVAVISYDGSNKYYADSVKGRFTISRDNSKNTLYLQMNSLRAEDTAVYYCAREVPYYYGSGPFDYWGQGTLVTVSS VL: EIVLTQSPGTLSLSPGERATLSCRASQSVSSSSLAWYQQKPGQAPRHLIDGASSRASGIPDRFSGSGSGTDFTLTISRLEPEDFAVYYCQQYGSSYTFGQGTKVDIKR")
99
>>> value_observed("CA149 (antibody, human IgG1, kappa, V domains shown, Intact IgG1; also called CA149 antibody) VH: EVQLVESGGGVVQPGRSLRLSCAASGFTFSSYAMHWVRQAPGKGLEWVAVISFDGSNKYYTDSVKGRFTISRDNSKNTLYLQMNSLRAEDTAVYYCAREVPYYYGSGPFDYWGQGTLVTVSS VL: EIVLTQSPATLSVSPGERATLSCRASQSVSSNLAWYQQKPGQAPRHLIDGASSRASGIPDRFSGSGSGTDFTLTISRLEPEDFAVYYCQQYGSSPPFTFGPGTKVDIKR")
97
